B1: PRPH (parent)
chain: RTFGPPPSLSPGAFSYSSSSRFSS

variants of: B1; experiment: protein stability index of a GFP-peptide fusion (GPS, HEK-293T) (PSI 1-6); higher = more stable; conditions: c terminus: a fixed tail appended;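 also: lentivirally expressed fusions sorted by FACS into six bins by GFP to DsRed ratio, PSI derived from sequencing read proportions per bin multiplied by bin number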
protein stability index for assorted variants

# variant, protein stability index
rows = [
    ("A13Y", 3.14),
    ("P5C", 2.64),
    ("F22K", 4.21),
    ("P6L", 2.95),
    ("S8V", 2.59),
    ("T2Q", 2.92),
    ("P5T", 3.29),
    ("P11I", 2.46),
    ("P6A", 2.76),
    ("S20I", 2.43),
    ("S23M", 2.88),
    ("S20Y", 2.74),
    ("T2M", 2.52),
    ("R1S", 3.01),
    ("S10R", 3.15),
    ("S10L", 3.24),
    ("G12F", 2.16),
    ("S23I", 2.52),
    ("A13V", 2.94),
    ("S10W", 2.9),
    ("P6W", 2.01),
    ("T2I", 2.97),
    ("S20G", 2.99),
    ("G4R", 3.1),
    ("S8G", 2.68),
    ("S18E", 3.57),
    ("F3S", 3.6),
    ("T2A", 2.95),
    ("P11M", 2.52),
    ("S19T", 3.23),
    ("P11L", 2.59),
    ("R21H", 3.48),
    ("L9V", 3.31),
    ("R21E", 3.22),
    ("L9K", 3.8),
    ("S17F", 2.37),
    ("S19G", 3.46),
    ("L9C", 2.71),
]
